# metabolised at 2 h annotations
# Assay Notes: In vitro enzymatic digestion model of the digestive tract (pepsin, pancreatin, bile), HPLC
# Format: in vitro ADME
# Test Conditions: Gastric phase 120 min.; read-out: Degradation (%)
Where no end group is shown, it is not given here.
Readout Label: metabolised at 2 h (%)

                                  substance       readout_label  value_units  result
0  QGENEGEDKGAIVT [Peptide P14b, QGENEGEDKGAIVT]  metabolised at 2 h            %     8.7
1  QGENEEEDSGAIVTVK [Peptide P16f, QGENEEEDSGAIVTVK]  metabolised at 2 h            %    95.2
2              SDNFEY [Peptide P6a, SDNFEY]  metabolised at 2 h            %    66.9
3  EEDQPRPDHPPQRP [Peptide P14c, EEDQPRPDHPPQRP]  metabolised at 2 h            %     4.6
